test system: P. aeruginosa NB52023 (efflux deficient K1542, ΔmexX ΔmexB); experiment: microbe, parasite or virus in culture; format: cell-based; conditions: Pseudomonas aeruginosa, 20 h, read-out: Antibacterial activity (MIC) NB52023
Counter-ions that a name gives are not always drawn.
For each entry below, report its MIC value.

# return MIC for each item in the list
1. Cc1c(N2CC[C@@H]([C@H](C)N)C2)c(F)cc2c(OCc3n[nH]c(=O)o3)cc(=O)n(C3CC3)c12
2. Cc1c(C#N)c2cc(F)c(N3CC[C@@H]([C@H](C)N)C3)c(C)c2n(C2CC2)c1=O

> 32 µg/mL
2 µg/mL

# return MIC for each item in the list
1. Cc1c(-c2ccc(N)nc2)c(F)cc2cc(O)c(=O)n(C3CC3)c12
2. Cc1c(N2CC[C@@H]([C@H](C)N)C2)c(F)cc2c(-c3cn[nH]c3)cc(=O)n(C3CC3)c12
3. Cc1c(N2CC[C@@H]([C@H](C)N)C2)c(F)cc2c(OCCN(C)C)cc(=O)n(C3CC3)c12
4. Cc1c(N2CCC(C3(N)CC3)C2)c(F)cc2ccc(=O)n(C3CC3)c12 (centres unmarked)

16 µg/mL
8 µg/mL
4 µg/mL
16 µg/mL

# return MIC for each item in the list
1. Cc1c(N2CCC(CN)C2)c(F)c(C#N)c2ccc(=O)n(C3CC3)c12.O=C(O)C(F)(F)F (centres unmarked)
2. Cc1c(N2CCC(F)(CN)C2)c(F)cc2cc(CN)c(=O)n(C3CC3)c12 (centres unmarked) [Example 93, formic acid salt]

2 µg/mL
4 µg/mL
